Each recorded value in this set is attributed to patent US7109231B2.

target: recombinant human secreted phospholipase A2 (Homo sapiens); experiment: chromogenic assay for inhibitors of recombinant human secreted phospholipase A2; type: biochemical; conditions: diheptanoyl thio-PC substrate, pH 7.5, 40° C. for 30 minutes, absorbance at 405 nanometers, titrated in triplicate
Sequence (P14555 21-144): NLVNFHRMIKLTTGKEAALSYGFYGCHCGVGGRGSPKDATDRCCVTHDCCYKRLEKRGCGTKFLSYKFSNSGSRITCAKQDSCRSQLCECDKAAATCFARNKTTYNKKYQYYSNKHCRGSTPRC
measure-name: IC50 (µM)

INSERT INTO results (molecule, measure_name, unit_text, experimental_result) VALUES
  ('NC(=O)C1CCCCc2c1c1c(OCC(=O)O)cccc1n2Cc1ccccc1 (stereo not shown)', 'IC50', 'µM', 0.248);
